- Test system: NCI-H1341 complex spheroids, percent test/control
- method.description: Anticancer human tumor NCI-H1341 cell line growth inhibition [AhR];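 further: spheroids exposed to agents for seven days before readout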
- details: curve of first compound; second compound 1 µM
observed.property: IC50

Please review the entries below; each comes with its answer.
molecule	target.system	IC50
CC1(C)CCC(CN2CCN(c3ccc(C(=O)NS(=O)(=O)c4ccc(NCC5CCOCC5)c([N+](=O)[O-])c4)c(Oc4cnc5[nH]ccc5c4)c3)CC2)=C(c2ccc(Cl)cc2)C1 + Cc1cncc(-c2nc(NCCc3c[nH]c4ccccc34)c3ncn(C(C)C)c3n2)c1	NCI-H1341 complex spheroids, percent test/control	> 10 µM
COc1cc(Nc2ncc3c(n2)-c2ccc(Cl)cc2C(c2c(F)cccc2OC)=NC3)ccc1C(=O)O + Cc1cncc(-c2nc(NCCc3c[nH]c4ccccc34)c3ncn(C(C)C)c3n2)c1	NCI-H1341 complex spheroids, percent test/control	< 0.0316 µM

From here, focus on the item given below.
Exercise: Find the recorded IC50 belonging to CC(C)c1c(-c2ccccc2)nc2c(C#N)c[nH]n2c1=O + Cc1ccccc1N=Nc1ccc(NC(=O)c2ccnn2C)c(C)c1 and report it.
Solution: > 10 µM

* * *

- Tested on: NCI-H1341 complex spheroids, percent test/control
- method.description: Anticancer human tumor NCI-H1341 cell line growth inhibition [AhR];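 further: spheroids exposed to agents for seven days before readout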
- details: second compound 3.16 µM; first compound 0.03 µM; stronger effect = lower value
- Excerpt: Multicellular complex tumor spheroid response to aryl hydrocarbon receptor antagonists in combination with a variety of drugs and investigational agents in selected tumor cell lines […] Compounds. […] If the clinical Cmax for an agent had not been determined, the highest concentration tested was 10 microM (Table 1). […]
observed.property: viability, T/C (%)
Numbers only, in %.

Worked set:
compound	numeric.value
CC(C)CC(NC(=O)C(Cc1ccccc1)NC(=O)c1cnccn1)B(O)O (stereo not drawn) + Cc1ccccc1N=Nc1ccc(NC(=O)c2ccnn2C)c(C)c1	0.06
CC(C)CC(NC(=O)C(Cc1ccccc1)NC(=O)c1cnccn1)B(O)O (stereo not drawn) + CC(CO)NC(=O)c1cc(-c2ccc(Cl)cc2)nn(-c2cnn(C)c2)c1=O	0.08
O=C(C=Cn1cnc(-c2cc(C(F)(F)F)cc(C(F)(F)F)c2)n1)NNc1cnccn1 + Cc1cncc(-c2nc(NCCc3c[nH]c4ccccc34)c3ncn(C(C)C)c3n2)c1	60.4
CCc1c2c(nc3ccc(O)cc13)-c1cc3c(c(=O)n1C2)COC(=O)[C@]3(O)CC + Cc1ccccc1N=Nc1ccc(NC(=O)c2ccnn2C)c(C)c1	43.5
O=C(C=Cn1cnc(-c2cc(C(F)(F)F)cc(C(F)(F)F)c2)n1)NNc1cnccn1 + Cc1ccccc1N=Nc1ccc(NC(=O)c2ccnn2C)c(C)c1	40.7
CC(C)CC(NC(=O)C(Cc1ccccc1)NC(=O)c1cnccn1)B(O)O (stereo not drawn) + Cc1cncc(-c2nc(NCCc3c[nH]c4ccccc34)c3ncn(C(C)C)c3n2)c1	0.06

Required: viability, T/C, one value per compound below.
1. Nc1ncn(C2CC(O)C(CO)S2)c(=O)n1 (stereo not drawn) + CC(CO)NC(=O)c1cc(-c2ccc(Cl)cc2)nn(-c2cnn(C)c2)c1=O
2. CCc1c2c(nc3ccc(O)cc13)-c1cc3c(c(=O)n1C2)COC(=O)[C@]3(O)CC + Cc1cncc(-c2nc(NCCc3c[nH]c4ccccc34)c3ncn(C(C)C)c3n2)c1

Solution:
82.7
26.3
